molecular target: GMP-140 receptors on the surface of leukocytes (human); experiment: neutrophil adhesion to GMP-140 coated wells, peptide preincubated with neutrophils, myeloperoxidase read-out
Non-standard residues stand in square brackets, D forms with d. No end group written: not given here. *: point of attachment. Fmoc = O=C(OCC1c2ccccc2-c2ccccc21)*
resultType: percent inhibition of neutrophil binding to GMP-140 at 0.1 mM peptide (%)

{"binder": "R[dK]IGGIWTWV-NH2 (N-terminus assumed; SMILES CC[C@H](C)[C@H](NC(=O)CNC(=O)CNC(=O)[C@@H](NC(=O)[C@@H](CCCCN)NC(=O)[C@@H](N)CCCNC(=N)N)[C@@H](C)CC)C(=O)N[C@@H](Cc1c[nH]c2ccccc12)C(=O)N[C@H](C(=O)N[C@@H](Cc1c[nH]c2ccccc12)C(=O)N[C@H](C(N)=O)C(C)C)[C@@H](C)O) [RkIGGIWTWV-NH2]", "value": 67}
{"binder": "RKNNKTWTWV […]", "value": 14}
{"binder": "RKNNKTWTWVGTKKALTNEC-NH2", "value": 9}
{"binder": "Fmoc-NNKTW-NH2 (SMILES C[C@@H](O)[C@H](NC(=O)[C@H](CCCCN)NC(=O)[C@H](CC(N)=O)NC(=O)[C@H](CC(N)=O)NC(=O)OCC1c2ccccc2-c2ccccc21)C(=O)N[C@@H](Cc1c[nH]c2ccccc12)C(N)=O) [FMOC-NNKTW-NH2]", "value": 85}

P = RKIGGIWTWV-NH2
Q = YKNNKTWTWV-NH2
**Q:** Compare percent inhibition of neutrophil binding to GMP-140 at 0.1 mM peptide: is it lower for P or for Q ? Mark your selection by writing its label.
**A:** Q
(Q: 9%, P: 96%)
